All figures here come from the kinase profiling compilation of Christmann-Franck et al. (2016).

Quick reference for kinase still bound, per cent of control among some molecules
target: MAP3K2 (human) (UniProt Q9Y2U5); assay: KINOMEscan competition binding; conditions: compound 10.0 µM
Sequence (Q9Y2U5 whole entry, looked up): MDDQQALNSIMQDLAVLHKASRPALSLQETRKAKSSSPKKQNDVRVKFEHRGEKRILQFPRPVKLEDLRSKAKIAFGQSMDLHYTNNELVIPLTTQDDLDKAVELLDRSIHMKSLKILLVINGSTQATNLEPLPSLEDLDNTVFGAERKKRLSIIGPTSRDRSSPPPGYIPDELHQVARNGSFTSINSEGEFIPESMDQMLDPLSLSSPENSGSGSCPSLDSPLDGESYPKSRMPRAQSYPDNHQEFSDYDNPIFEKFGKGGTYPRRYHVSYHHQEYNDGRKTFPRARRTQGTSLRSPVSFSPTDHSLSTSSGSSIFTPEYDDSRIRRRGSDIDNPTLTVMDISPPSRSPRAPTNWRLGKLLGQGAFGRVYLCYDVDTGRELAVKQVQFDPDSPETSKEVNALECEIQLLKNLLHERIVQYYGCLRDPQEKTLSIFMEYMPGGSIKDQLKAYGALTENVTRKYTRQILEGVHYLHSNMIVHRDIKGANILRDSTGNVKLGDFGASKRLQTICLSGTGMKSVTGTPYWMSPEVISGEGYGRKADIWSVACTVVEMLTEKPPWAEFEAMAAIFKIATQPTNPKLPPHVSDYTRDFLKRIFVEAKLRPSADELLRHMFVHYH
Provide the reading as a plain figure in %.

>  <Sample Smiles>
Cc1ccc(NC(=O)c2cccc(C(C)(C)C#N)c2)cc1Nc1ccc2ncn(C)c(=O)c2c1

>  <Measure Unit>
%

>  <Endpoint Result>
88

$$$$
>  <Sample Smiles>
COc1cc(N2CCN(C)CC2)ccc1Nc1nc(N)c(C(=O)c2c(Cl)cccc2Cl)s1

>  <Measure Unit>
%

>  <Endpoint Result>
79

$$$$
>  <Sample Smiles>
CCN1CCN(Cc2ccc(Nc3ncc4c(n3)N(C)c3ccccc3C(=O)N4C)cc2C(F)(F)F)CC1

>  <Measure Unit>
%

>  <Endpoint Result>
0.55

$$$$
>  <Sample Smiles>
CN(C)C/C=C/C(=O)Nc1cccc(Nc2ncc3c(n2)N(C)c2ccccc2C(=O)N3C)c1

>  <Measure Unit>
%

>  <Endpoint Result>
0.1

$$$$
>  <Sample Smiles>
C[C@@H](Oc1cc(-n2cnc3ccc(CN4CCN(C)CC4)cc32)sc1C(N)=O)c1ccccc1C(F)(F)F

>  <Measure Unit>
%

>  <Endpoint Result>
100

$$$$

Exercise: Using the record for C=CC(=O)Nc1cccc(Nc2nc(N[C@H]3CC[C@H](N(C)C)CC3)nc3c2ncn3C(C)C)c1 , state its measured kinase still bound, per cent of control.
Solution: 0.2

Exercise: Look up and report measured kinase still bound, per cent of control for this entry: Cn1c(=O)n(-c2ccc(C(C)(C)C#N)cc2)c2c3cc(-c4cnc5ccccc5c4)ccc3ncc21
Solution: 100

Exercise: Tell me measured kinase still bound, per cent of control for CCCS(=O)(=O)Nc1ccc(F)c(C(=O)c2c[nH]c3ncc(-c4ccc(Cl)cc4)cc23)c1F please.
Solution: 100

Exercise: Quote kinase still bound, per cent of control reported for OCCCNc1cc(-c2ccnc(Nc3cccc(Cl)c3)n2)ccn1 please.
Solution: 100

Exercise: Specify reported kinase still bound, per cent of control for the molecule shown: O=C(O)c1ccc(Nc2ncc3c(n2)-c2ccc(Cl)cc2C(c2c(F)cccc2F)=NC3)cc1
Solution: 100

* * *

target: CDK19 (human); assay: KINOMEscan competition binding; details: compound 10.0 µM
Measure: kinase still bound, per cent of control (%)
The response must be a number in % with no trailing unit.

>  <Sample Smiles>
CCN1CCN(Cc2ccc(Nc3ncc4c(n3)N(C)c3ccccc3C(=O)N4C)cc2C(F)(F)F)CC1

>  <Measure Unit>
%

>  <Endpoint Result>
95

$$$$
>  <Sample Smiles>
COc1cc(C(=O)NC2CCN(C)CC2)ccc1Nc1ncc2c(n1)N(C1CCCC1)CCC(=O)N2C(C)C

>  <Measure Unit>
%

>  <Endpoint Result>
100

$$$$
>  <Sample Smiles>
O=C1Nc2ccc(I)cc2/C1=C/c1cc(Br)c(O)c(Br)c1

>  <Measure Unit>
%

>  <Endpoint Result>
63

$$$$
>  <Sample Smiles>
Cc1ccc(C(=O)Nc2cccc(C(F)(F)F)c2)cc1Nc1cncc(C(N)=O)c1

>  <Measure Unit>
%

>  <Endpoint Result>
25

$$$$

Now turn to the next molecule.
Exercise: Name the recorded kinase still bound, per cent of control of the molecule listed here: O=C(NC1CC1)c1cccc(-c2ccc3c(NC(=O)C4CC4)n[nH]c3c2)c1
Solution: 79
